test: ACEA_AR_agonist_AUC_viability: ACEA Biosciences xCELLigence Real-Time Cell Analysis on Androgen Receptor Agonism for Viability (AID 2283775)
Results filed as inconclusive are left out. Calls of active or inactive are those of the source. Rule for the calls: active = hit-call score of the fitted dose curve at least 0.9, where 1 is the maximum; inconclusive = response in the unintended direction; inactive = score below 0.9.
Write down one outcome, taken from active, inactive

Observe how each entry below is paired with its result.
| COMPOUND | CLASS_NAME |
| --- | --- |
| CCN1CN(CC)CN(CC)C1 | inactive |
| CC(=O)OC(C)c1ccccc1 (centres undefined) | inactive |
| COc1ccc(C(=O)c2ccccc2)c(O)c1 | inactive |
| O=C(O)c1cc(O)c2ccccc2c1O | inactive |
| Cc1cc(C)n(CO)n1 | inactive |

Each compound tested received a call. Report the one for N#Cc1ccc(C(c2ccc(C#N)cc2)n2cncn2)cc1 .
active

Each compound tested received a call. Report the one for CCCCCCC=O .
inactive

Each compound tested received a call. Report the one for CC1=NN(c2ccc(S(=O)(=O)O)cc2)C(=O)C1N=Nc1ccccc1 (centres undefined) .
inactive

Each compound tested received a call. Report the one for CC(C)c1ccc(O)c(C(C)C)c1 .
inactive

Each compound tested received a call. Report the one for CCCCC(CC)COS(=O)(=O)O (centres undefined) .
inactive

Each compound tested received a call. Report the one for C=C(C)C1CC=C(C)CC1 (centres undefined) .
inactive

Each compound tested received a call. Report the one for COc1ccc(-c2coc3cc(O)cc(O)c3c2=O)cc1 .
inactive

Each compound tested received a call. Report the one for C=C1C[C@H]2[C@@H]3C=C(C)C4=CC(=O)CC[C@]4(C)[C@H]3CC[C@]2(C)[C@@]1(OC(C)=O)C(C)=O .
inactive

* * *

read-out: CD40, CD40 (gene 958); assay: BSK_SAg_CD40: BioMAP Diversity Plus: SAg Assay for CD40 Biomarker Activity (AID 2283088); conditions: primary human HUVEC with PBMC; actives raise or lower the signal
Activity calls are given as the source filed them. How the source made its calls: active means hit-call score of the fitted dose curve at least 0.9, where 1 is the maximum; inactive means score below 0.9.
Write down one outcome, taken from active, inactive

Observe how each entry below is paired with its result.
| COMPOUND | CLASS_NAME |
| --- | --- |
| Cc1c(O)cccc1O | inactive |
| CCCCCC1=CCCC1=O | inactive |
| CCNc1nc(NC(C)(C)C)nc(OC)n1 | inactive |
| C1CNCCN1 | inactive |
| C=CC(=O)OCCCCCCOC(=O)C=C | active |

Each compound tested received a call. Report the one for CCOC(=O)C1=NN(c2ccc(Cl)cc2Cl)C(C)(C(=O)OCC)C1 (stereo not given) .
inactive

Each compound tested received a call. Report the one for Cc1ccc([N+](=O)[O-])cc1N .
inactive

Each compound tested received a call. Report the one for Nc1ccc(C(=O)O)cc1 .
inactive

Each compound tested received a call. Report the one for Oc1ccccc1Cc1ccccc1O .
inactive

Each compound tested received a call. Report the one for Oc1c(Cl)cc(Cl)c(Cl)c1Cl .
active

Each compound tested received a call. Report the one for CCc1cccc(C)c1N(C(=O)CS(=O)(=O)O)C(C)COC (stereo not given) .
inactive

Each compound tested received a call. Report the one for CCCCCCCCCCCC(=O)N(C)CC(=O)O .
inactive

Each compound tested received a call. Report the one for C=CC(=O)OCCCCCCCC(C)C .
inactive

Each compound tested received a call. Report the one for C=CC(=O)OCC(C)OCC(C)OCC(C)OC(=O)C=C (stereo not given) .
active

Each compound tested received a call. Report the one for CCCCCCC=O .
inactive

* * *

Assay: ATG_BRE_CIS: Attagene CIS-FACTORIAL HepG2 Assay for human Bone Morphogenetic Protein (BMP) Response Element (BRE) (AID 2282933)
Conditions: HepG2 BMP response element reporter, Attagene transcription factor profiling; actives raise or lower the signal
Protocol: ATG_CIS is a cell-based, multiplexed-readout assay that uses HepG2, a human liver cell line, with measurements taken at 24 hours after chemical dosing in a 24-well plate.ATG_BRE_CIS is one of 52 assay component(s) measured or calculated from the ATG_CIS assay. […] This assay endpoint, ATG_BRE_CIS, was analyzed with bidirectional fitting relative to DMSO as the negative control and baseline of activity. […]
The source made the active and inactive calls. How the source made its calls: active means hit-call score of the fitted dose curve at least 0.9, where 1 is the maximum; inactive means score below 0.9.
VALUE_TYPE: AC50

Solved cases below.
| COMPOUND | VALUE_TYPE | EXPERIMENTAL_RESULT |
| --- | --- | --- |
| Oc1ccc(-c2ccccc2)c(Cl)c1 | AC50 | 33.4 µM (active) |
| COC(=O)CC(C)CCC=C(C)C (stereo not given) | AC50 | inactive |
| CC(=O)CCC=C(C)C | AC50 | inactive |
| Oc1ccccc1Cc1ccccc1O | AC50 | inactive |
| CN1CCN(C)CC1 | AC50 | inactive |
| COc1cc(O)c(C(=O)c2ccccc2)cc1S(=O)(=O)O | AC50 | inactive |

Would you mind telling me what AC50 value was observed for C=CC(=O)OCCCCCCCC(C)C ?
inactive

Would you mind telling me what AC50 value was observed for NC(=O)Nc1ccccc1 ?
inactive

Would you mind telling me what AC50 value was observed for CCCCCCOC(=O)CCCCC(=O)OCCCCCC ?
inactive

Would you mind telling me what AC50 value was observed for C=CC(=O)OCCCCCCCCCC ?
inactive

Would you mind telling me what AC50 value was observed for O=S(=O)(O)c1ccc(N=Nc2c(O)ccc3ccccc23)cc1 ?
inactive

Would you mind telling me what AC50 value was observed for C=Cc1ccc(OC(C)=O)cc1 ?
inactive

* * *

target: Estrogen-related receptor gamma (Homo sapiens) (UniProt P62508); experiment: ATG_ERRg_TRANS: Attagene TRANS-FACTORIAL HepG2 Assay for human Estrogen-Related Receptor gamma (ERRg) (AID 2282977); conditions: HepG2 Attagene TRANS reporter, ERRg transactivation;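 note: hits increase reporter signal over DMSO so potencies reflect activators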
Sequence (P62508 whole entry, looked up): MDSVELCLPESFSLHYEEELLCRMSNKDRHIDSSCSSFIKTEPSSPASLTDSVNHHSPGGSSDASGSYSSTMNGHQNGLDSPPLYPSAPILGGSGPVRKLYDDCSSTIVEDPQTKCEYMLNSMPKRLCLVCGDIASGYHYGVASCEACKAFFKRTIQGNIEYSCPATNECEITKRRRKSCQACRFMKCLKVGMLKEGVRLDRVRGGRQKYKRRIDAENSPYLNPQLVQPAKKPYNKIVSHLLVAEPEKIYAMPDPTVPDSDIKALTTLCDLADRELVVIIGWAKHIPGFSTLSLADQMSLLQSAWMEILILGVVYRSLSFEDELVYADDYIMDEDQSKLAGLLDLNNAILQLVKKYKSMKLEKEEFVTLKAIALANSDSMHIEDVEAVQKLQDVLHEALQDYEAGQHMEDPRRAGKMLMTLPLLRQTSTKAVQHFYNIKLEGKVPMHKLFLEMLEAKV
Results filed as inconclusive are left out. Activity calls are given as the source filed them. How the source made its calls: active means hit-call score of the fitted dose curve at least 0.9, where 1 is the maximum; inconclusive means response in the unintended direction; inactive means score below 0.9.
VALUE_TYPE: outcome

| MOLECULAR_STRING | EXPERIMENTAL_RESULT |
| --- | --- |
| CCOC(=O)/C=C\C(=O)OCC | inactive |
| [Cl][Sc]([Cl])[Cl] | inactive |
| CC(C)c1cccc(C(C)C)c1N | inactive |

* * *

target: Bile acid receptor (Homo sapiens); experiment: ATG_IR1_CIS: Attagene CIS-FACTORIAL HepG2 Assay for human Nuclear Receptor Subfamily 1 Group H Member 4 (NR1H4), IR1 submotif (AID 2282946); details: IR1 reporter transcription, actives raise or lower the signal
Activity calls are given as the source filed them. How the source made its calls: active means hit-call score of the fitted dose curve at least 0.9, where 1 is the maximum; inactive means score below 0.9.
Write down one outcome, taken from y (active), n (inactive)

Observe how each entry below is paired with its result.
| MOLECULE | CLASS_NAME |
| --- | --- |
| CC(CC=O)CC(C)(C)C (stereo not given) | n |
| N=C1C=CC(=C(c2ccc(N)cc2)c2ccc(N)cc2)C=C1 | n |
| C=C(C)C1CC=C(C)C(OC(C)=O)C1 (stereo not given) | n |
| O=C(OCc1ccccc1)c1ccc(O)cc1 | n |
| CCCCC(=O)O | n |
| c1ccc2sc(SSN3CCOCC3)nc2c1 | y |
| CCN1CCCC1=O | n |
| Cc1ccccc1CCO | n |

Each molecule tested received a call. Report the one for CC(C)(C)C1CCC(=O)CC1 .
n

Each molecule tested received a call. Report the one for N#Cc1ccc(C(c2ccc(C#N)cc2)n2cncn2)cc1 .
n

Each molecule tested received a call. Report the one for CCOC(=O)C1=NN(c2ccc(Cl)cc2Cl)C(C)(C(=O)OCC)C1 (stereo not given) .
n

Each molecule tested received a call. Report the one for CCC(C)C(=O)OC (stereo not given) .
n

Each molecule tested received a call. Report the one for C=CC(C)(CCC=C(C)C)OC(=O)C=Cc1ccccc1 (stereo not given) .
n

Each molecule tested received a call. Report the one for CCCCC1C(=O)N(c2ccccc2)N(c2ccccc2)C1=O .
n

Each molecule tested received a call. Report the one for CCCCC(C=O)CC (stereo not given) .
n

Each molecule tested received a call. Report the one for COc1cc(O)c(C(=O)c2ccccc2)cc1S(=O)(=O)O .
n

Each molecule tested received a call. Report the one for CC1(C)CC(O)CC(C)(C)N1[O] .
y

Each molecule tested received a call. Report the one for Cn1ccnc1 .
n

Each molecule tested received a call. Report the one for CCCCCCCCC(CO)CCCCCC (stereo not given) .
n

Each molecule tested received a call. Report the one for CCCCNC(=S)NCCCC .
n

Each molecule tested received a call. Report the one for CC(C)=NNC(N)=S .
n

Each molecule tested received a call. Report the one for O=S(=O)(O)c1ccc(Nc2nc(Nc3ccc(C=Cc4ccc(Nc5nc(Nc6ccc(S(=O)(=O)O)cc6)nc(N(CCO)CCO)n5)cc4S(=O)(=O)O)c(S(=O)(=O)O)c3)nc(N(CCO)CCO)n2)cc1 .
n

* * *

read-out: Collagen III, COL3A1 (gene 1281); assay: BSK_hDFCGF_CollagenIII: BioMAP Diversity Plus: hDFCGF Assay for Collagen III Biomarker Activity (AID 2283056); conditions: primary human foreskin fibroblasts; actives raise or lower the signal
The source made the active and inactive calls. The calls were made as follows: active = hit-call score of the fitted dose curve at least 0.9, where 1 is the maximum; inactive = score below 0.9.
Write down one outcome, taken from active, inactive

Observe how each entry below is paired with its result.
| MOLECULE | CLASS_NAME |
| --- | --- |
| CC=C(C)C=CC=C(C)C | inactive |
| O=C(O)C(F)(F)C(F)(F)C(F)(F)C(F)(F)C(=O)O | inactive |
| CCCCCCC=O | inactive |

Each molecule tested received a call. Report the one for CC1(C)CC(O)CC(C)(C)N1[O] .
inactive

Each molecule tested received a call. Report the one for C1CNCCN1 .
inactive

Each molecule tested received a call. Report the one for c1ccc2sc(SSN3CCOCC3)nc2c1 .
inactive

Each molecule tested received a call. Report the one for CCCCCCCCC(CO)CCCCCC (stereo not drawn) .
active

Each molecule tested received a call. Report the one for CC(C)c1cccc(C(C)C)c1N .
inactive

# credit: PubChem BioAssay (EPA / NIEHS)
